Tested on: Trypanosoma brucei
ASSAY SUMMARY: Trypanosoma brucei 72 hour study
Assay type: functional, organism-based
Set-up: scale not given: in the data most compounds retested in dose-response had high values
SETUP CONDITIONS: 30.3 µM; […]
Out of some 66,000 compounds screened, about 960 (1.5%) showed an effect of 50% or more. The list comes from a sample in which strong results are over-represented; it also holds close analogues and randomly drawn compounds.
Decide using Percent Effect alone. Strictly below 10%: T. Equal to or above 10%: F.

COMPOUND | TGT | CAT
COc1ccc(C2Nc3cc(Cl)ccc3C3=NCCN32)cc1CO (stereo unspecified) | Trypanosoma brucei | F

Consider the additional compound presented here.
Lookup: State whether 10% exceeds Percent Effect recorded for COc1cc(C2Nc3cc(Cl)ccc3C3=NCCN32)ccc1O (stereo unspecified) .
Found: F

###

For each of the molecules below, state its Percent Effect.
Test system: Trypanosoma brucei
ASSAY SUMMARY: Trypanosoma brucei 72 hour study
Format: functional, organism-based
Parameters: scale not given: in the data most compounds retested in dose-response had high values
SETUP CONDITIONS: 30.3 µM; […]
The campaign covered roughly 66,000 compounds. About 960 (1.5%) showed an effect of 50% or more. The entries come from a sample that favours strong results as a whole.
Express the reported value numerically, then name its unit.

Below, 3 molecules whose answers are already recorded.
MOLECULE | OBSERVED VALUE
Br.COc1ccc(OCCc2cc(C3CCN(CC(C)C)C3)n[nH]2)cc1 (stereo unspecified) | 20.63%
O=C(CN1CCCC(c2ccn[nH]2)C1)Nc1nc2c(s1)CCC2 (stereo unspecified) | 99.68%
CCOCC1CN(C(=O)c2cnoc2C)Cc2cnn(C)c21.O=C(O)C(F)(F)F (stereo unspecified) | -5.791%

Provide Percent Effect values for the following items, in order.
1. Cc1nnc(NC(=O)CN2CCCC(c3ccn[nH]3)C2)s1 (stereo unspecified)
2. Cc1nc(=O)c2ccccc2n1C1=CCN(CC(=O)N2CCCC2)CC1
3. CC1CCN(c2cc(NC(=O)C3CC3)ncn2)CC1
4. CN(C[C@@H]1CCC[C@@H]2CN(c3ncccn3)C[C@@H]21)C1CC1.O=C(O)C(F)(F)F

Found:
1. -16.15%
2. 9.131%
3. 71.79%
4. -3.838%

Batch of 2 molecules: report Percent Effect for each.
1. Cc1nc(C)c(C(=O)Nc2cc(N3CCC(C)CC3)ncn2)s1
2. Cc1ccc(NCc2cncc3c2CCN(Cc2ccccn2)C3)nn1.Cl.Cl

Found:
-16.43%
-48.05%

// each molecule listed below needs its Percent Effect
1. Cc1ccc2c(n1)N(CC1CC1)CCN(Cc1cnn(C)c1)C2
2. CCCOC1CCCN(Cc2nc(-c3ccc(F)cc3F)oc2C)C1 (stereo unspecified)
3. Cn1ccc(C(=O)N2CCCCC2c2cc(CCO)[nH]n2)n1 (stereo unspecified)
4. O=C(O)C(F)(F)F.O=C([C@H]1C[C@H]2OCC[C@H]2N(CC2CC2)C1)N1CCCCO1
5. Cc1cc(C2CCCN(CC(=O)Nc3nc4c(s3)CCC4)C2)n[nH]1 (stereo unspecified)

Found:
-21.1%
19.33%
-16.55%
-275.5%
99.45%

Below are some molecules; for each one, tell me its Percent Effect.
1. CN(C)C[C@@H]1CCC[C@@H]2CN(c3ncccn3)C[C@@H]21.O=C(O)C(F)(F)F
2. CCCC(=O)N(CCCN1CCOCC1)c1nc2c(F)cccc2s1.Cl
3. O=C(O)C(F)(F)F.O=C(O)C(F)(F)F.O=C(O)C(F)(F)F.O=C(O)c1c(-c2cncnc2)ncc2c1CCN(Cc1cccnc1)C2
4. Cc1ccccc1NC(=O)Nc1cc(N2CCCC2)ncn1
5. O=C(CCc1cccs1)N1CCCC(n2ccnc2)C1 (stereo unspecified)
6. O=C(O)C(F)(F)F.O=C(O)C(F)(F)F.c1ccc(CN2CCOCC3(CCN(C4CCOCC4)C3)C2)cc1 (stereo unspecified)

Found:
-12.16%
24.42%
-22.43%
-35.39%
37.83%
-34.62%

Form: molecule = O=C(O)c1cccc(CN2CCCC(c3ccn[nH]3)C2)c1 (stereo unspecified) ; Percent Effect = -0.7278%
